- assay-notes: Total clearance in guinea pig at 0.5 mg/kg, iv
- Type: ADME, organism-based, Cavia porcellus
- condition-context: in vivo

>  <chem-smiles>
Cc1nc(C)c(-c2csc(Nc3ccc(C(=O)N4C5COCC4CC(=O)C5)cn3)n2)s1

>  <units-label>
mL/min/kg

>  <clearance>
37.1

$$$$

====

- assay-notes: Volume of distribution at steady state in guinea pig at 0.5 mg/kg, iv
- Assay type: ADME, organism-based, Cavia porcellus
- condition-context: in vivo, read-out: Vdss
measured-endpoint: Vd (L/kg)

>  <chem-smiles>
Cc1nc(C)c(-c2csc(Nc3ccc(C(=O)N4C5COCC4CC(=O)C5)cn3)n2)s1

>  <units-label>
L/kg

>  <measured-value>
2.5

$$$$
